Entries and their fold difference in affinity vs original values follow.
Assay target: binding partner of C5A (XPA23)
Method summary: Biacore K-off
// return numeric value only (unit: fold, not printed)

Worked cases, answers included:
| Binder | Measurement units | fold difference in affinity vs original |
| --- | --- | --- |
| C5A (XPA23) VL Q27I (antibody, V domains shown) VH: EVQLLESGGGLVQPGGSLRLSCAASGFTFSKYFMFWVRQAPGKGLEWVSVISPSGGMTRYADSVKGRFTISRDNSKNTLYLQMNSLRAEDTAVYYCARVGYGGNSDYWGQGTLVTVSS VL: DIQMTQSPSSVSASVGDRLTIICRASIDINRWLAWYQQTPGNAPKLLIHSATSLQSGVPSRFSGSGSGTDFTLTINSLQPEDFATYYCQQADSFPLTFGGGTKVEIK | fold | 0.82 |
| C5A (XPA23) VL Q27H (antibody, V domains shown) VH: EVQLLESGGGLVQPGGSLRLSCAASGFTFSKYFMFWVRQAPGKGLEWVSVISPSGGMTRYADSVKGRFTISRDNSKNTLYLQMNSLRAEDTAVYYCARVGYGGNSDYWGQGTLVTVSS VL: DIQMTQSPSSVSASVGDRLTIICRASHDINRWLAWYQQTPGNAPKLLIHSATSLQSGVPSRFSGSGSGTDFTLTINSLQPEDFATYYCQQADSFPLTFGGGTKVEIK | fold | 1.09 |

Ask | Fill in the blank: the reported fold difference in affinity vs original of C5A (XPA23) VL N30V (antibody, V domains shown) VH: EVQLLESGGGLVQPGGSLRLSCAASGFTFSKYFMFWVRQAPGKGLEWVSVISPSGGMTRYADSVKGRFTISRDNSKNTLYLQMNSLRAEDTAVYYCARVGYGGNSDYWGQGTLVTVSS VL: DIQMTQSPSSVSASVGDRLTIICRASQDIVRWLAWYQQTPGNAPKLLIHSATSLQSGVPSRFSGSGSGTDFTLTINSLQPEDFATYYCQQADSFPLTFGGGTKVEIK is ____.
Reply | 0.89

Ask | Fill in the blank: the reported fold difference in affinity vs original of C5A (XPA23) VH K31W (antibody, V domains shown) VH: EVQLLESGGGLVQPGGSLRLSCAASGFTFSWYFMFWVRQAPGKGLEWVSVISPSGGMTRYADSVKGRFTISRDNSKNTLYLQMNSLRAEDTAVYYCARVGYGGNSDYWGQGTLVTVSS VL: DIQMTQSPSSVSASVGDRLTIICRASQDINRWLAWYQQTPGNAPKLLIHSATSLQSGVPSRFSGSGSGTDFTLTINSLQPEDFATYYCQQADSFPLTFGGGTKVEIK is ____.
Reply | 0.84

Ask | Fill in the blank: the reported fold difference in affinity vs original of C5A (XPA23) VL S93D (antibody, V domains shown) VH: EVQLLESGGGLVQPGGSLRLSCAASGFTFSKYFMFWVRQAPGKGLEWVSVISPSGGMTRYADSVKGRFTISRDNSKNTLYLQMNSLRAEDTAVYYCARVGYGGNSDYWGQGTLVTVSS VL: DIQMTQSPSSVSASVGDRLTIICRASQDINRWLAWYQQTPGNAPKLLIHSATSLQSGVPSRFSGSGSGTDFTLTINSLQPEDFATYYCQQADDFPLTFGGGTKVEIK is ____.
Reply | 4.59
